system: RXRa homodimer (NR concentration 180 nM); assay: PBM binding z-score (relative to random genomic background probes); higher = stronger binding; sequences stand for … in GC…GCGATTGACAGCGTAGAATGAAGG
Overview of recorded PBM binding z-score for various sequences

{"orderedResidues": "TCATATAGATAAAAGGTGAAAGTCGGTGTGGTAA", "PBM binding z-score": 2.41}
{"orderedResidues": "ACTTACGGGTTAACGAGGTTATAGCACGCGTATA", "PBM binding z-score": 3.01}
{"orderedResidues": "TCTATTAGTTGATTAGGGCATCCGAAACAGCGGA", "PBM binding z-score": 0.604}
{"orderedResidues": "CAAACTAGGTCACAGAGGTCAAATTCCGTGCGTA", "PBM binding z-score": 8.2}
{"orderedResidues": "TCATATAGGTAAGTGCTAGGTGAAAGTCCGATCT", "PBM binding z-score": 0.629}

Suppose we examine the sequence GTACCAAGATGAATAGGTCGTTGATGAGTAGGCG ; what PBM binding z-score value has been reported?
0.691

For CTCGAAAGGTCGGTTGAGGTGAGAATACGGATAA , what is its reported PBM binding z-score?
2.33

GET /values?readout=PBM binding z-score&item= ATAGGTAGGTTAGCTGGGGTCATTCAGACTAGGC
5.46

For the sequence TATACAGGGTCAAAGGCCAGCGTACGAATGTCGA , what PBM binding z-score is on record?
7.31
